All figures here come from PubChem BioAssay (NCI).

For each of the compounds below, state its TGI.
- Tested on: TK-10 renal
- protocol-text: NCI tumour cell line growth inhibition, 48 h
Answers are plain numbers, in µM.

Known TGI results, listed for orientation:
CN(CCO)c1oc(-c2ccccc2)nc1[P+](c1ccccc1)(c1ccccc1)c1ccccc1 = 15.2
O=C(Nc1cccc(-c2cn(-c3ccc4oc(=O)ccc4c3)nn2)c1)Nc1cc(C(F)(F)F)cc(C(F)(F)F)c1 = 56.9
FC(F)(F)c1cc2c(Cl)ncnc2n1CCC1CCOCC1 = 36.7

Now examine the next entry.
Entry under test: COc1cc(OC)c(S(=O)(=O)N(CCCl)CCCl)cc1C(=O)/C=C/c1cc(OC)c(OC)c(OC)c1 . Its TGI was 75

---

- Test system: MDA-MB-468 breast
- protocol-text: NCI tumour cell line growth inhibition, 48 h
reported-property: TGI

Look up TGI for the entries below, preserving their order.
1. O=c1oc2cc(OS(=O)(=O)c3ccc(F)cc3)ccc2c2c1CCCCC2
2. Cc1ccc2[nH]cc(-c3nc(-c4c[nH]c5ncccc45)cs3)c2c1
3. O=C(CSc1nc2ccccc2[nH]1)Nc1ccc(-c2nc3ccccc3s2)c(Cl)c1

> 100 µM
> 100 µM
> 100 µM

The observed TGI for CC(=O)Nc1ccc2c(c1)c(C1=C(c3cn(C)c4ccccc34)C(=O)NC1=O)cn2C when tested with MDA-MB-468 breast stands at > 25 µM
